test system: Staphylococcus aureus; assay: Antibacterial activity against methicillin-resistant Staphylococcus aureus; assay type: functional
observation type: MIC

smiles data: Cn1cc(NC(=O)c2ccc(C(O)c3ccc(C(=O)Nc4cc(C(=O)NCCN5CCCCC5)n(C)c4)cc3)cc2)cc1C(=O)NCCN1CCCCC1
measured result: > 32 µg/mL

smiles data: CN(C)c1ccc(NC(=O)c2nc(NC(=O)c3ccc(C(=O)c4ccc(C(=O)Nc5cn(C)c(C(=O)Nc6ccc(N(C)C)cc6)n5)cc4)cc3)cn2C)cc1
measured result: > 32 µg/mL

Kindly review the next compound as well.
Query: Item `CN1CCN(CCCNC(=O)c2cc(NC(=O)c3ccc(C(=O)c4ccc(C(=O)Nc5cc(C(=O)NCCCN6CCN(C)CC6)n(C)c5)cc4)cc3)cn2C)CC1` with Staphylococcus aureus - MIC?
Reply: > 32 µg/mL
